- System: Human tumour cells (cell line panel)
- run_description: Proliferation assay: cell line panel (crystal violet, 4 days)
- Type: cell-based
- conditions: COV362, ovarian cancer, 4000 cells/well, read-out: Result Category, IC50 (mean)
pIC50: −log10 of the molar value.
measured_property: pIC50

Query: Recall the recorded pIC50 for Brc1cnn2c(NCc3nc4ccccc4[nH]3)nc(N3CCOCC3)nc12 with Human tumour cells (cell line panel) and state it.
Reply: ≤ 7.00

* * *

- assayed_system: CDK2/CycE (Homo sapiens, UniProt P24941)
- run_description: CDK2/CycE kinase assay (TR-FRET, 2 mM ATP)
- conditions: 2 mM ATP (high ATP); median; read-out: CDK2/CyclinE, 2 mM ATP (high ATP), IC50 (median)
I'd appreciate it if you marked entries True when IC50 is lower than 9 µM and False when it is not.

> print(dat)
                                   molecule  label
1  Fc1ccc2[nH]c(CNc3nc(N4CCOCC4)nc4c(C5CCOCC5)cnn34)nc2c1F [Example 276]  False
2  N#Cc1cnn2c(NCc3nc4ccccc4[nH]3)nc(N3CCOCC3)nc12 [Example 43]  False
3  COc1ccc2[nH]c(CNc3nc(N4CCOCC4)nc4c(C(F)(F)F)cnn34)nc2c1 [Example 257]  False
4  Fc1ccc2[nH]c(CNc3nc(N4CCOCC4)nc4c(C5CCC5)cnn34)nc2c1F [Example 264]  False
5  CN(CC1CC1)c1nc(NCc2nc3ccccc3[nH]2)n2ncc(Br)c2n1 [Example 287]  False

Query: Strictly below 9 µM in IC50? Cc1cnn2c(NCc3nc4c(F)c(F)ccc4[nH]3)nc(N3CC4CCC(C3)N4)nc12 [Example 400]
Reply: False

Query: How about this molecule: NC1(C(F)(F)F)CCN(c2nc(NCc3nc4ccccc4[nH]3)n3ncc(Br)c3n2)C1 (stereo not shown) [Example 266]
Reply: True

Query: How about this molecule: Fc1ccccc1-c1nnc(CNc2nc(N3CCOCC3)nc3c(Br)cnn23)[nH]1 [Example 75]
Reply: True

Query: How about this molecule: CN(CC(C)(C)O)c1nc(NCc2nc3cc(C(F)(F)F)ccc3[nH]2)n2ncc(C3CC3)c2n1 [Example 323]
Reply: False

Query: How about this molecule: N[C@H]1[C@@H]2C[C@H]1CN(c1nc(NCc3nc4ccccc4[nH]3)n3ncc(Br)c3n1)C2 [Example 288]
Reply: True

Query: How about this molecule: CN1CCN(c2nc(NCc3nc4cc(Cl)c(Cl)cc4[nH]3)n3ncc(Br)c3n2)CC1 [Example 330]
Reply: False

* * *

- System: Human tumour cells (cell line panel)
- run_description: Proliferation assay: cell line panel (crystal violet, 4 days)
- Assay type: cell-based
- conditions: JHH-4, liver cancer, 4000 cells/well, read-out: Result Category, IC50 (mean)
measured_property: IC50

Query: I am curious: what IC50 value has been reported for Brc1cnn2c(NCc3nc4ccccc4[nH]3)nc(N3CCOCC3)nc12 ?
Reply: 30 to 100 nM

* * *

# (IC50 CDK12 high ATP) to (Degradation DC50 CDK12) ratio per entry
- assayed_system: CDK12 (nuclear staining in CAL-120 cells) (Homo sapiens, UniProt Q9NYV4)
- Construct: endogenous in cells; host or cells: CAL-120 human breast cancer cells (DSMZ ACC 459)
- Sequence (Q9NYV4 whole entry): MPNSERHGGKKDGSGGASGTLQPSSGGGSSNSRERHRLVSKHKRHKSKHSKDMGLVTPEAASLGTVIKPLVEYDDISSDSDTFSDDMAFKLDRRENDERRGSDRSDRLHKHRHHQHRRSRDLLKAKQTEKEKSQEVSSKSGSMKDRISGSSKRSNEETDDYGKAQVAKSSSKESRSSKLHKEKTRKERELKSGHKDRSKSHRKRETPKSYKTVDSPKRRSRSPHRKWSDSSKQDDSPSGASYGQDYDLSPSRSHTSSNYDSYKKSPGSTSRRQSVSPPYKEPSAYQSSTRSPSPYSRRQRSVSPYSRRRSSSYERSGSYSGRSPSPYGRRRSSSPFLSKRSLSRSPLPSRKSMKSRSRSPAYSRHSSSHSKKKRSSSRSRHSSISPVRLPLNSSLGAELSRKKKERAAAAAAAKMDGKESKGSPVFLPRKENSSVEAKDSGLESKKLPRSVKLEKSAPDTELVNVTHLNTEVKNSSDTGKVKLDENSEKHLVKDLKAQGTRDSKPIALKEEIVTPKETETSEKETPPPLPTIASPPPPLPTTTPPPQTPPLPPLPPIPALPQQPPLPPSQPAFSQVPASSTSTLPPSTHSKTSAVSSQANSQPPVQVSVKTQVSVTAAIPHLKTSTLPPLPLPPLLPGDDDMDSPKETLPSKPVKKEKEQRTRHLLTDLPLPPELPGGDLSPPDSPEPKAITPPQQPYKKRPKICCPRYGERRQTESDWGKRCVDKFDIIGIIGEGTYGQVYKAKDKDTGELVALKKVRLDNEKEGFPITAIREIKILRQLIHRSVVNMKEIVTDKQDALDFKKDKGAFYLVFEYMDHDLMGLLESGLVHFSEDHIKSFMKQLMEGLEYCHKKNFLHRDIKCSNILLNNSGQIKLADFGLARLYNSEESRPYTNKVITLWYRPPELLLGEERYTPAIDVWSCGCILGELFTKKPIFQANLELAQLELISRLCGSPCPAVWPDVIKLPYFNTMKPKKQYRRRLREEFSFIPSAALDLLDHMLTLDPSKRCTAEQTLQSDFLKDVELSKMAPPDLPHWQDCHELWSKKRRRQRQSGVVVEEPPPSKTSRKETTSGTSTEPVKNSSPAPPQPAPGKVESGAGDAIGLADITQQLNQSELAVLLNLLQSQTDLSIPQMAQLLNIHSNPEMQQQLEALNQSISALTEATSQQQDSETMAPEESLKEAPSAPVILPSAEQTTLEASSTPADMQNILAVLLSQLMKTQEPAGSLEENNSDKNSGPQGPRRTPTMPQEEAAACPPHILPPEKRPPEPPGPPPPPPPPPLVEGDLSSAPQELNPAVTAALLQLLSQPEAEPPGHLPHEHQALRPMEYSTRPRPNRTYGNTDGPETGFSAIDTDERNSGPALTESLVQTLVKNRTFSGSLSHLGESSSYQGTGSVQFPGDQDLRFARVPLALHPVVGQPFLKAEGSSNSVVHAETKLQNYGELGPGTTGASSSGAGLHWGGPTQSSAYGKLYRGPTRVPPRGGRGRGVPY
- Sequence (O75909 whole entry partner): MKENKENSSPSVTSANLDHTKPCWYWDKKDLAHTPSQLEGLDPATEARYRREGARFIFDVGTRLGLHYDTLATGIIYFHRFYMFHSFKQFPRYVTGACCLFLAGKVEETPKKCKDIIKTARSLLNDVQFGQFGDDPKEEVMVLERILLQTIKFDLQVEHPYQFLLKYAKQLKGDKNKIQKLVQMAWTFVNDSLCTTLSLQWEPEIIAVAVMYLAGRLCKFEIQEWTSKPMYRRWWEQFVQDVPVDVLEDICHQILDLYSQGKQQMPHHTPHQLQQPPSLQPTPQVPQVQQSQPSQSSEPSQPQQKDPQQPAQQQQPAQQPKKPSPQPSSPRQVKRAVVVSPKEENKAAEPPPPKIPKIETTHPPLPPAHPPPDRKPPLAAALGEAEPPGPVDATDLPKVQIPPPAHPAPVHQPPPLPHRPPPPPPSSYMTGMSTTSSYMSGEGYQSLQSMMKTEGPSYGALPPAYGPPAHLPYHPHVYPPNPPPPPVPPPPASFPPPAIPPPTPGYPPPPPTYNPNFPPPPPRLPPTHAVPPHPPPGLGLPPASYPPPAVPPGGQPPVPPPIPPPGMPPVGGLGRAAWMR
- run_description: CDK12 nuclear protein level: immunofluorescence/high content analysis (CAL-120)
- Assay type: cell-based
- conditions: ratio of IC50 CDK12 high ATP kinase assay to DC50 CDK12 degradation (IF, CAL-120)
When you answer, write just the number.

Recorded results for 4 compounds are shown here.
> print(dat)
                                   compound  measured.result
1  CN(CC(C)(C)O)c1nc(NCc2nc3c(F)c(F)ccc3[nH]2)n2ncc(Cl)c2n1 [Example 359]              483
2  C[C@H]1CN(C)CCN1c1nc(NCc2nc3c(F)cccc3[nH]2)n2ncc(C(F)(F)F)c2n1 [Example 388]              655
3  Brc1cnn2c(NCc3nc4ccccc4[nH]3)nc(N3CCOCC3)nc12 [Example 4]             1628
4  Fc1cccc2[nH]c(CNc3nc(N4CC5CCC(C4)N5)nc4c(Cl)cnn34)nc12 [Example 363]              279

Query: I am curious: what (IC50 CDK12 high ATP) to (Degradation DC50 CDK12) ratio value has been reported for Brc1cnn2c(NCc3nc4ccccc4[nH]3)nc(N3CCCCC3)nc12 [Example 46] ?
Reply: 186

Query: How about this compound: Cc1cc2nc(CNc3nc(N(C)CC(C)(C)O)nc4c(Br)cnn34)[nH]c2cc1C [Example 343]
Reply: 53
